The reported numbers originate from ChEMBL document CHEMBL1143406.

assay: Half life in HIV-negative human at 600 mg, po administered every 24 hrs coadministered with 300 mg of atazanavir every 12 hrs; type: ADME, organism-based; settings: in vivo
Endpoint: half-life (h)
Numbers only, in h.

Item: CO[C@H]1/C=C/O[C@@]2(C)Oc3c(C)c(O)c4c(O)c(c(/C=N/N5CCN(C)CC5)c(O)c4c3C2=O)NC(=O)/C(C)=C\C=C\[C@H](C)[C@H](O)[C@@H](C)[C@@H](O)[C@@H](C)[C@H](O)[C@@H]1C | half-life: 1.6

###

test: AUC (24 hrs) in HIV-negative human at 300 mg, po administered every 12 hrs; assay type: ADME, organism-based; design: dose 300 mg, time < 24 hr, route oral; details: plasma
Endpoint: AUC at 24 h (ng·h/mL)
Answers are plain numbers, in ng·h/mL.

Item: COC(=O)N[C@H](C(=O)N[C@@H](Cc1ccccc1)[C@@H](O)CN(Cc1ccc(-c2ccccn2)cc1)NC(=O)[C@@H](NC(=O)OC)C(C)(C)C)C(C)(C)C | AUC at 24 h: 47600

###

Please respond with reported CL/F for every item in the list.
experiment: Apparent oral clearance in HIV-negative human at 600 mg, po administered every 24 hrs coadministered with 300 mg of atazanavir every 12 hrs; assay type: ADME, organism-based; conditions: in vivo
One number for each entry, in mL/min.

Smiles Structure: CO[C@H]1/C=C/O[C@@]2(C)Oc3c(C)c(O)c4c(O)c(c(/C=N/N5CCN(C)CC5)c(O)c4c3C2=O)NC(=O)/C(C)=C\C=C\[C@H](C)[C@H](O)[C@@H](C)[C@@H](O)[C@@H](C)[C@H](O)[C@@H]1C
CL/F (mL/min): 1490

Here is the next item to consider.
Item: CO[C@H]1/C=C/O[C@@]2(C)Oc3c(C)c(O)c4c(O)c(c(/C=N/N5CCN(C)CC5)c(O)c4c3C2=O)NC(=O)/C(C)=C\C=C\[C@H](C)[C@H](O)[C@@H](C)[C@@H](O)[C@@H](C)[C@H](OC(C)=O)[C@@H]1C | CL/F: 252

###

assay: Half life in HIV-negative human at 600 mg, po administered every 24 hrs coadministered with 400 mg of atazanavir every 12 hrs; format: ADME, organism-based; settings: in vivo
Endpoint: half-life

Item: CO[C@H]1/C=C/O[C@@]2(C)Oc3c(C)c(O)c4c(O)c(c(/C=N/N5CCN(C)CC5)c(O)c4c3C2=O)NC(=O)/C(C)=C\C=C\[C@H](C)[C@H](O)[C@@H](C)[C@@H](O)[C@@H](C)[C@H](O)[C@@H]1C | half-life: 1.5 h

###

assay: Cmax in HIV-negative human at 300 mg coadministered with 100 mg of ritonavir every 24 hrs; type: ADME, organism-based; parameters: dose 300 mg; details: in vivo
Endpoint: Cmax (ng/mL)
Give bare numbers, in ng/mL.

Item: COC(=O)N[C@H](C(=O)N[C@@H](Cc1ccccc1)[C@@H](O)CN(Cc1ccc(-c2ccccn2)cc1)NC(=O)[C@@H](NC(=O)OC)C(C)(C)C)C(C)(C)C [ATAZANAVIR] | Cmax: 6130

###

test: Drug level in HIV-negative human serum at 300 mg, po administered every 12 hrs measured at 12 hrs; format: ADME, organism-based
Endpoint: concentration at 12 h (ng/mL)
Give bare numbers, in ng/mL.

Item: COC(=O)N[C@H](C(=O)N[C@@H](Cc1ccccc1)[C@@H](O)CN(Cc1ccc(-c2ccccn2)cc1)NC(=O)[C@@H](NC(=O)OC)C(C)(C)C)C(C)(C)C [ATAZANAVIR] | concentration at 12 h: 811
